# Test system: PHHs grown in suspension format
# Details: human
Value Type: Measurability of clearance in suspension hepatocytes

Compound	Measured Result
CCC1=C(C)CN(C(=O)NCCc2ccc(S(=O)(=O)NC(=O)N[C@H]3CC[C@H](C)CC3)cc2)C1=O [Glimepiride]	unable to measure
CC(=O)CC(c1ccccc1)c1c(O)c2ccccc2oc1=O (stereo not shown) [Warfarin]	unable to measure
C[C@]12C=CC(=O)C=C1CC[C@@H]1[C@@H]2[C@@H](O)C[C@@]2(C)[C@H]1CC[C@]2(O)C(=O)CO [Prednisolone]	unable to measure
CCCCNC(=O)NS(=O)(=O)c1ccc(C)cc1 [Tolbutamide]	unable to measure

----------
# System: 3D primary human hepatocyte (PHH) high density spheroids
# Test Summary: 3D PHH high density spheroid drug clearance assay
# Assay type: in vitro ADME
# Details: 0.1 μM substrate, 6-well spheroid insert, in vivo hepatic clearance predicted from in vitro Clint by well stirred model
Catalogue of compounds with associated Predicted CLh, 3D HD Spheroids
Value Type: Predicted CLh, 3D HD Spheroids

Compound	Value Type	Measured Result
CCC1=C(C)CN(C(=O)NCCc2ccc(S(=O)(=O)NC(=O)N[C@H]3CC[C@H](C)CC3)cc2)C1=O [Glimepiride]	Predicted CLh, 3D HD Spheroids	0.04
Cc1nnc2n1-c1ccc(Cl)cc1C(c1ccccc1)=NC2	Predicted CLh, 3D HD Spheroids	0.45
CC(=O)CC(c1ccccc1)c1c(O)c2ccccc2oc1=O (centres unmarked)	Predicted CLh, 3D HD Spheroids	0.01
CCCCNC(=O)NS(=O)(=O)c1ccc(C)cc1 [Tolbutamide]	Predicted CLh, 3D HD Spheroids	0.22
C[C@]12C=CC(=O)C=C1CC[C@@H]1[C@@H]2[C@@H](O)C[C@@]2(C)[C@H]1CC[C@]2(O)C(=O)CO	Predicted CLh, 3D HD Spheroids	0.60
